The reported measurements were obtained from patent US20190218553.

target: von Willebrand factor (VWF) in whole blood (Homo sapiens, UniProt P04275 P04275:764-2813); assay: inhibition; platelet adhesion to collagen under high shear, human whole blood; text gives 72.6; settings: protein: extract; tags: endogenous, hirudin-anticoagulated human whole blood
pIC50: −log10 of the molar value.

[
  {
    "binder": "ACGAACUGCCCUCGAUCGACGCACAGACGUUUUUU (ssRNA, mAmCmGmAmAmCmUmGfCfCfCmUmCmGmAmUmCmGmAfCfGfCmAmCmAmGmAmCmGmUmUmUmUmUmU-idT) [T79 vrt7 (DTRI-031)]",
    "pIC50": 7.14
  }
]
